B1: SMTNL2 (parent)
chain: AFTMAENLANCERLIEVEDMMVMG

variants of: B1; assay: protein stability index of a GFP-peptide fusion (GPS, HEK-293T) (PSI 1-6); higher = more stable; settings: c terminus: a fixed tail appended;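 note: lentivirally expressed fusions sorted by FACS into six bins by GFP to DsRed ratio, PSI derived from sequencing read proportions per bin multiplied by bin number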
outcome_measure: protein stability index

Worked examples follow.
change	protein stability index
V22T	2.25
T3E	2.15
F2R	2.4
M21C	2.14
I15W	2.8
L8D	4.36

Next item in the queue.
Query: Quick one: protein stability index of `T3S` ?
Response: 2.12
